B1: FEM1A (parent)
chain: NIVEYLIQEQPGQEQVAGGEAQPG

# Variants of: B1
# experimental.protocol: protein stability index of a GFP-peptide fusion (GPS, HEK-293T) (PSI 1-6); higher = more stable;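 further: lentivirally expressed fusions sorted by FACS into six bins by GFP to DsRed ratio, PSI derived from sequencing read proportions per bin multiplied by bin number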
# applied.conditions: c terminus: a fixed tail appended
protein stability index of 4 or higher: 1 (yes). Under 4: 0 (no).

As a guide, the following entries are already answered.
seq.string	label.class
NIVEYVIQEQPGQEQVAGGEAQPG [L6V]	1 (yes)
NIVEYLIQEQPGQEQVIGGEAQPG [A17I]	0 (no)

Is protein stability index for NIVEYLIQEQPGQEQVAGGEAWPG [Q22W] at or above 4?
0 (no)

Could you do the same for NIVEYLIQEQPGQEQVAGGEAQKG [P23K] , please?
1 (yes)

Same read-out for NIVEYLIAEQPGQEQVAGGEAQPG [Q8A] ?
1 (yes)

Now this one: NIVEYLIQEQPGQEQVAGGEAQPF [G24F]
0 (no)

Follow-up item: NSVEYLIQEQPGQEQVAGGEAQPG [I2S]
1 (yes)

Next up: NIVEALIQEQPGQEQVAGGEAQPG [Y5A]
1 (yes)

Similarly, NIVEYLIQEQPGQEQVAGKEAQPG [G19K] ?
1 (yes)

And the next one, NIVEYLIQEQPGQEQVKGGEAQPG [A17K] ?
1 (yes)

And NIVEYIIQEQPGQEQVAGGEAQPG [L6I] ?
1 (yes)

Please answer likewise for NIVEYLIQEQPGQEQVAVGEAQPG [G18V]
0 (no)

Try this variant next: NIVEYLIQEQPGQEQDAGGEAQPG [V16D]
1 (yes)

Same read-out for NIVEYLINEQPGQEQVAGGEAQPG [Q8N] ?
1 (yes)

How about NIVEYLIQEQPGQEQVAGGEAQTG [P23T] ?
1 (yes)

Subsequent entry: NIVEYHIQEQPGQEQVAGGEAQPG [L6H]
1 (yes)

Can you check NIVEDLIQEQPGQEQVAGGEAQPG [Y5D] next?
1 (yes)
